target: eIF4E minor variant D127N (N127) (Homo sapiens, UniProt P06730, D127N); construct: made in house; host or cells: E. coli BL21-CodonPlus (DE3)-RIPL; assay: Isothermal titration calorimetry, eIF4E minor variant; type: binding; conditions: read-out: eIF4E Kd; ITC; minor variant D127N
Sequence (P06730 36-217 D127N): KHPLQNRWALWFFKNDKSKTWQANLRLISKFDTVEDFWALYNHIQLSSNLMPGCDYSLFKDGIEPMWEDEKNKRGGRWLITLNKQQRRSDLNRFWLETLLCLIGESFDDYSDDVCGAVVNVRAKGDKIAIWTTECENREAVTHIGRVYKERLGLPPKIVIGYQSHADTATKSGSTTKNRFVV
property label: pKd
Keep it numeric: pKd is minus log10 of the concentration in mol/L.

Recorded result, CC[C@H](O[C@H](C)CO)c1ccc(-c2ccccc2F)cc1NCCO [Compound 4] , pKd: 7.77

###

target: full-length eIF4G:eIF4E (Homo sapiens); construct: endogenous in cells; intact H1299 cells in A13); test: eIF4G:eIF4E binding, summary over cell line lysates; settings: read-out: full-length eIF4G:eIF4E IC50; lysates and intact cell engagement assays
property label: IC50

Form field IC50, entry CC[C@H](O[C@H](C)CO)c1ccc(-c2ccccc2F)cc1NCCO : 1000 to 2000 nM

###

Target: eIF4E:eIF4G interaction (Homo sapiens, UniProt P06730)
Sequence (P06730 2-217 limits assumed): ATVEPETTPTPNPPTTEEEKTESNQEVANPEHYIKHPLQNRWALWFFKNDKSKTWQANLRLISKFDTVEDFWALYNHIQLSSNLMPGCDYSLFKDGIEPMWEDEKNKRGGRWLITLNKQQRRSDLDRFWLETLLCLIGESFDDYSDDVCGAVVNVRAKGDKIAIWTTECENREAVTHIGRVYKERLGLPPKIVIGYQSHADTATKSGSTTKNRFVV
Assay: Electro-chemiluminescent binding assay, eIF4E:eIF4G, H1299 cell lysates
Assay type: biochemical
Parameters: endogenous in cells; host or cells: HeLa, SW620 or H1299 cells (lysates; intact H1299 cells in A13)
Conditions: read-out: EC50, eIF4G:eIF4E binding
Method: This assay uses plates with carbon electrodes and electro-chemiluminescent labels (SULFO-TAGs) that are conjugated to detection antibodies. When an electric current is applied to the plate electrodes the SULFO-TAG labels will emit light that is measured to quantify analytes in the sample. […] After a final wash step, 150 μl Read Buffer T4X (MSD, Cat# R92-TC2) was added and the plate read using the MSD QuickPlex SQ 120 plate reader.
property label: EC50

Reported EC50 ( CC[C@H](O[C@H](C)CO)c1ccc(-c2ccccc2F)cc1NCCO ) = ~1500 nM

###

target: eIF4E major variant (D127) (Homo sapiens); conditions: read-out: eIF4E Kd; ITC; major variant D127 (values in parentheses)
Sequence (P06730 with tags, fused parts or gaps): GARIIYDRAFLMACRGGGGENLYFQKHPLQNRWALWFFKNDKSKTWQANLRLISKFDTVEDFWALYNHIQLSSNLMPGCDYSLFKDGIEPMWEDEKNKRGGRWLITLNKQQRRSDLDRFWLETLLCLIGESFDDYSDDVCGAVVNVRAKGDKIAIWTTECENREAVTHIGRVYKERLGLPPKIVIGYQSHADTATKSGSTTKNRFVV
property label: Kd (µM)
Give the quantity in µM, number only.

According to the records, this compound CC[C@@H](O[C@H](C)CO)c1ccc(-c2ccccc2F)cc1NCCO [Compound 5] displays Kd of 3

Next:
Kd reported for this compound CC[C@H](O[C@H](C)CO)c1ccc(-c2ccccc2F)cc1NCCO [Compound 4] : 0.09

###

biological target: eIF4E minor variant D127N (N127) (Homo sapiens, UniProt P06730, D127N); construct: made in house; host or cells: E. coli BL21-CodonPlus (DE3)-RIPL; assay: Isothermal titration calorimetry, eIF4E minor variant; assay type: binding; conditions: minor variant D127N
property label: LE (ligand efficiency)

Example entries begin here.
The reported value for O=C(O)C1(c2ccc(Cl)cc2)CCCC1 in terms of LE (ligand efficiency) is 0.19 (kcal/mol)/heavy atom

Looking up CC(O)c1ccc(-c2ccccc2F)cc1 (stereo not shown) , I see its LE (ligand efficiency) listed as 0.4 (kcal/mol)/heavy atom

For Oc1cccc(-c2ccccc2)c1 [Compound 1, [1,1'-biphenyl]-3-ol] the compound record lists LE (ligand efficiency) as 0.36 (kcal/mol)/heavy atom

Others:
// field: LE (ligand efficiency); key: CC[C@H](O[C@H](C)CO)c1ccc(-c2ccccc2F)cc1NCCO ; value = 0.42 (kcal/mol)/heavy atom
